# Test system: Kochia scoparia (KCHSC)
# assay.details: E. Herbicidal post-emergence efficacy, KCHSC
# Format: in vivo
# condition.details: application rate 320 g/ha
Each record here notes measured Post-emergence efficacy against KCHSC in %.
readout.kind: Post-emergence efficacy against KCHSC in %

In [3]: df
Out[3]:
                                   compound  result
0  O=S(=O)(CCC(F)(F)F)Oc1c(F)cccc1Oc1ncc(Cl)cn1 [Example I-48]    100%
1  O=S(=O)(CCC(F)(F)F)Oc1c(F)cccc1Oc1ncc(F)cn1 [Example I-47]    100%
2  O=S(=O)(CCCC(F)(F)F)Oc1c(F)cccc1Oc1ncc(Cl)cn1 [Example I-49]    100%

* * *

# System: Triticum aestivum (TRZAS)
# assay.details: F. Post-emergence effect on useful plants, TRZAS
# Format: in vivo
# condition.details: useful plant, application rate 320 g/ha
readout.kind: Post-emergence efficacy against TRZAS in % (%)

In [3]: df
Out[3]:
                                smiles_repr  units  measured_number
0  N#Cc1cccc(Oc2ncc(Cl)cn2)c1OS(=O)(=O)CCC(F)(F)F      %                0
1  Cc1cccc(Oc2ncc(F)cn2)c1OS(=O)(=O)CCCC(F)(F)F      %               10
2   O=S(=O)(CCCCl)Oc1cccc(F)c1Oc1ncc(Cl)cn1      %               10

* * *

# Tested on: Kochia scoparia (KCHSC)
# assay.details: B. Herbicidal post-emergence efficacy, KCHSC
# Assay type: in vivo
# condition.details: 80 g/ha, rated visually after about 3 weeks
readout.kind: Post-emergence efficacy against KCHSC in % (%)

                                    molecule  units  measured_number
 0  O=S(=O)(CC1CC1(Cl)Cl)Oc1c(F)cccc1Oc1ncc(Cl)cn1 (stereo not shown)      %               90
 1    CC(C)CCS(=O)(=O)Oc1ccccc1Oc1ncc(Cl)cn1      %               90
 2        CCCS(=O)(=O)Oc1ccccc1Oc1ncc(Cl)cn1      %               90
 3     O=S(=O)(CC1CC1)Oc1ccccc1Oc1ncc(Cl)cn1      %              100
 4      O=S(=O)(Oc1ccccc1Oc1ncc(Cl)cn1)C1CC1      %               90
 5  O=S(=O)(CC1CC1(Cl)Cl)Oc1c(Br)cccc1Oc1ncc(Cl)cn1 (stereo not shown)      %               90
 6  O=S(=O)(CCCC(F)(F)F)Oc1c(Cl)cccc1Oc1ncc(Cl)cn1      %               90
 7  O=S(=O)(CCCC(F)(F)C(F)(F)F)Oc1c(F)cccc1Oc1ncc(Cl)cn1      %              100
 8  O=S(=O)(CCC(F)=C(F)F)Oc1c(Br)cccc1Oc1ncc(Cl)cn1      %               90
 9  O=S(=O)(CCC(F)(F)F)Oc1c(Cl)cccc1Oc1ncc(Br)cn1      %              100
10  Cc1cccc(Oc2ncc(Cl)cn2)c1OS(=O)(=O)CCCC(F)(F)C(F)(F)F      %               90
11  O=S(=O)(CCC(F)(F)F)Oc1c(Br)cccc1Oc1ncc(F)cn1      %               90
12  O=S(=O)(CCC(F)(F)F)Oc1ccccc1Oc1ncc(Cl)cn1      %               90
